# Tested on: NCI-H23 lung
# Experiment Notes: NCI tumour cell line growth inhibition, 48 h
*1 amine or outer side, *2 acyl side, *3 side chain or, on linkers, in order; H or OH if unused. Where a SMILES comes first, the peptide text is derived from it. CO = O=C([*:1])[*:2]
Result Type: TGI

{"Molecule": "CC(C)C(NC(=O)C(CCCN=C(N)N)NC(=O)NC(Cc1ccccc1)C(=O)O)C(=O)NC(C=O)CCCN=C(N)N (stereo not drawn) ({Phe-CO}-Arg-Val-Arg-aldehyde; configuration not given here)", "System Name": "NCI-H23 lung", "Result Type": "TGI", "Result": "> 5 µM"}
{"Molecule": "Cc1cc(C)n(C(=O)C(C)Sc2nnc(SC(C)C(=O)n3nc(C)cc3C)s2)n1 (centres undefined)", "System Name": "NCI-H23 lung", "Result Type": "TGI", "Result": "> 100 µM"}
{"Molecule": "Cc1c(N(C(=O)c2cc(-c3cc(Cl)ccc3C(=O)N3Cc4ccccc4C[C@H]3CN3CCOCC3)n(C)c2C)c2ccc(O)cc2)cc(C#N)n1C", "System Name": "NCI-H23 lung", "Result Type": "TGI", "Result": "> 100 µM"}
{"Molecule": "CC1=C(C#N)C(=O)N(/N=C/c2ccc(Cl)cc2)C(=O)/C1=c1\\o/c(=C2/C(=O)N(/N=C/c3ccc(Cl)cc3)C(=O)C(C#N)=C2C)c2nccnc12", "System Name": "NCI-H23 lung", "Result Type": "TGI", "Result": "> 100 µM"}
{"Molecule": "C=C1[C@H](OCC(C)C)[C@@H](OCC(C)C)[C@@H](O)C(C)(C)/C=C/[C@H](C)C(=O)[C@@]2(O)C[C@H](C)[C@H](O)[C@@H]2[C@H]1OCC(C)C", "System Name": "NCI-H23 lung", "Result Type": "TGI", "Result": "> 7.5 µM"}
{"Molecule": "CCN(CC)CCCC(C)N/C(c1cccc(OC)c1)=c1\\c(=O)[nH]n(-c2c3ccccc3nc3ccccc23)c(=O)\\c1=C(/NC(C)CCCN(CC)CC)c1cccc(OC)c1 (centres undefined)", "System Name": "NCI-H23 lung", "Result Type": "TGI", "Result": "4.69 µM"}
{"Molecule": "O=C1C=CC(=O)N1c1ccc2c(c1)Cc1cc(NC(=O)C(F)(F)F)ccc1-2", "System Name": "NCI-H23 lung", "Result Type": "TGI", "Result": "32.2 µM"}
{"Molecule": "Cc1cc2c(cc1Cl)SC(NNC(=O)c1ccncc1)=NS2(=O)=O", "System Name": "NCI-H23 lung", "Result Type": "TGI", "Result": "> 10 µM"}
{"Molecule": "Clc1ccc2c(Cl)ncnc2c1I", "System Name": "NCI-H23 lung", "Result Type": "TGI", "Result": "> 100 µM"}
{"Molecule": "CCC(C)C(NC(=O)C(CCCCN)NC(=O)C(NC(=O)C(CCC(N)=O)NC(=O)C(CCCNC(=N)N)NC(C)=O)C(C)CC)C(=O)NC(Cc1c[nH]c2ccccc12)C(=O)NC(Cc1ccccc1)C(=O)NC(CCC(N)=O)C(=O)NC(CC(N)=O)C(=O)NC(CCCNC(=N)N)C(=O)NC(CCCNC(=N)N)C(=O)NC(CCSC)C(=O)NC(CCCCN)C(=O)NC(Cc1c[nH]c2ccccc12)C(=O)NC(CCCCN)C(=O)NC(CCCCN)C(N)=O (centres undefined)", "System Name": "NCI-H23 lung", "Result Type": "TGI", "Result": "> 50 µM"}
{"Molecule": "N#Cc1c(SCc2ccccc2)nc2[nH]c(=S)[nH]c(=S)c2c1-c1ccco1", "System Name": "NCI-H23 lung", "Result Type": "TGI", "Result": "> 100 µM"}
{"Molecule": "C=CCN1C(=O)N/C(=C\\c2ccc(Cl)cc2)C1=O", "System Name": "NCI-H23 lung", "Result Type": "TGI", "Result": "> 100 µM"}
{"Molecule": "c1ccc2c(NCCCCCCCCNc3cccc4ccccc34)cccc2c1", "System Name": "NCI-H23 lung", "Result Type": "TGI", "Result": "65 µM"}
{"Molecule": "Cn1c(=S)[nH]c2c(Cl)cc(Cl)cc2c1=O", "System Name": "NCI-H23 lung", "Result Type": "TGI", "Result": "> 100 µM"}

Hey, just so you know, these numbers are from PubChem BioAssay (NCI).
